Published IC50 for Tyrosine-protein kinase JAK3 (Homo sapiens), assembled from different documents, is shown next.

Take a look at these entries with their results.
[[record]]
chemical_string = "C=CC(=O)Nc1cccc(Oc2c(Cl)cnc3[nH]c(-c4ccc(CN5CCOCC5)cc4)nc23)c1"
obs_value = "≤ 50 nM"

[[record]]
chemical_string = "CC(=O)Nc1cccc(-c2ccnc3[nH]cc(C(=O)c4ccccc4F)c23)c1"
obs_value = "≤ 10000 nM"

[[record]]
chemical_string = "CC#CC(=O)Nc1cccc(Sc2ccnc(Nc3ccc(N4CCOCC4)cc3)n2)c1"
obs_value = "< 500 nM"


We next turn to a different compound, shown below.
// query I would be grateful if you could share the reported IC50 for `CN(C)C(=O)N1CC(CCF)(n2cc(-c3nc(-c4cnn(C)c4)cc4nccn34)cn2)C1` .
// result > 1000 nM
